Source of measurements: PubChem BioAssay (NCI)

Test system: M19-MEL melanoma
assay_procedure: NCI tumour cell line growth inhibition, 48 h
For each entry below, report its TGI value.

COc1ccc2c(c1)CC[C@@H]1C2CC[C@](C)(C#N)C1CC#N (some centres not stated); > 100 µM

Please state TGI for every molecule in the list that follows.
1. O=C(O)c1cc(=O)c2c([nH]c3ccccc32)s1
2. COC(=O)CC(C(C(=O)OCc1ccccc1)C(C)O)N1C(=O)OC(c2ccccc2)C1c1ccccc1 (configuration not stated)
3. Cc1ccc(N(O)C(C)(C)C)cc1
4. COc1ccc(-c2cc(C(=O)Nc3cc(C(F)(F)F)cc(C(F)(F)F)c3)c3ccccc3n2)cc1
5. O=c1c2ccccc2nc(-c2ccccc2)n1NC(=S)Nc1ccc(Cl)cc1
6. COc1ccc2nc3c(c(NCCCN(C)C)c2c1)CCCC3
7. COc1cc(C2C(Cl)C(=O)N2NC(=O)c2ccc(NC(C)=O)cc2)ccc1O (configuration not stated)

1: > 100 µM; 2: > 100 µM; 3: > 100 µM; 4: 63 µM; 5: > 100 µM; 6: 31 µM; 7: > 100 µM
